biological target: H3R membranes (H3R8-expressing HEK293 cell line) (Homo sapiens, UniProt Q9Y5N1); experiment: [35S]GTPγS binding assay, H3R membranes in the presence of agonist; settings: inhibition of [35S]GTPγS binding to H3R membranes in presence of agonist R(-)alpha methylhistamine; room temperature, pH 7.4
Sequence (Q9Y5N1 whole entry): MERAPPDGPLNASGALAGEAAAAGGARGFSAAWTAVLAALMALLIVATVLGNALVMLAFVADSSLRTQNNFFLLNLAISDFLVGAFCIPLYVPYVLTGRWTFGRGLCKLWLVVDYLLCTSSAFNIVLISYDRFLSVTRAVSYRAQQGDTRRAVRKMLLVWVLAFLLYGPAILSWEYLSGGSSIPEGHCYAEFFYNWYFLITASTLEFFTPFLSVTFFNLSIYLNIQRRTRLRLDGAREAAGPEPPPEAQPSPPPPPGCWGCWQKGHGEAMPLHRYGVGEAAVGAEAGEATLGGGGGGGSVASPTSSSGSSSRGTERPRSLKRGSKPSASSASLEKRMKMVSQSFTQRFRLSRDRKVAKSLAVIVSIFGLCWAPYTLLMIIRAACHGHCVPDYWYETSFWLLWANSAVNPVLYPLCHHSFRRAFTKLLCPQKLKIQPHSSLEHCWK
Listing: Ki of selected molecules

| molecule | unit.text | Ki |
| --- | --- | --- |
| O=C(c1cccs1)N1CCCc2ccc(OCCCN3CCCCC3)cc21 [Example 6] | nM | 12.6 |
| CN1CCC[C@H]1CN1CCc2cc(OCCCN3CCCCC3)ccc21 [Example 60] | nM | 0.5 |
